The reported numbers originate from patent US20140107100A1.

# assayedTarget: mTOR/GbL/Raptor (mTORC1) (Homo sapiens, UniProt P42345)
# assayText: mTOR/GbL/Raptor (mTORC1) ELISA assay, phosphorylation of 4E-BP1
# setupConditions: 0.2 nM mTORC1, 40 uM ATP, 50 nM NHis-tagged 4E-BP1, 120 minutes; read-out: IC50 in this assay (mTORC1 ELISA)
pIC50: −log10 of the molar value.
Listing of entries alongside the reported pIC50.

Please review the following examples before continuing.
Record lookup: for mTOR/GbL/Raptor (mTORC1) (Homo sapiens, UniProt P42345), what pIC50 belongs to Cc1cc(-c2cnc3sc(N)nc3c2)cc2c1OCCN(c1nc(CF)nc(C)c1C(C)C)C2 [Compound 120] ? ≥ 7.00

Also need COc1ccc(-c2cc(C)c3c(c2)CN(c2nc(N)nc(C)c2C(C)C)CCO3)cn1 [Compound 74] , thanks. 6.30 to 7.00

Also need Cc1cc(-c2cnc3sc(N)nc3c2)cc2c1OCCN(c1nc([C@@H]3C[C@@H](F)CN3)nc(C)c1C(C)C)C2 [Compound 151] , thanks. ≥ 7.00

Also need COc1nc(C)c(C(C)C)c(N2CCOc3c(C)cc(-c4cnc5sc(N)nc5c4)cc3C2)n1 [Compound 152] , thanks. ≥ 7.00

Also need COCCc1c(C)nc(CN2CCCC2)nc1N1CCOc2c(C)cc(-c3cnc4sc(N)nc4c3)cc2C1 [Compound 127] , thanks. ≥ 7.00

Also need CCN(CCF)Cc1nc(C)c(C(C)C)c(N2CCOc3c(C)cc(-c4cnc5sc(N)nc5c4)cc3C2)n1 [Compound 159] , thanks. ≥ 7.00

Also need COCc1nc(C)c(C(C)C)c(N2CCOc3c(C)cc(-c4cnc5sc(N)nc5c4)cc3C2)n1 [Compound 93] , thanks. ≥ 7.00

Also need CCc1nc(N)nc(N2CCOc3c(C)cc(-c4cnc5sc(N)nc5c4)cc3C2)c1C(C)C [Compound 56] , thanks. ≥ 7.00

More entries:
Record lookup: for mTOR/GbL/Raptor (mTORC1) (Homo sapiens, UniProt P42345), what pIC50 belongs to CCN(CC)Cc1nc(C)c(C(C)C)c(N2CCOc3c(C)cc(-c4cnc5sc(N)nc5c4)cc3C2)n1 [Compound 65] ? ≥ 7.00

Also need Cc1cc(-c2cnc3sc(N)nc3c2)cc2c1OCCN(c1ncnc(Cl)c1C(C)(C)O)C2 [Compound 131] , thanks. 6.30 to 7.00

Also need C#CCc1c(C)nc(C)nc1N1CCOc2c(C)cc(-c3cnc4sc(N)nc4c3)cc2C1 [Compound 138] , thanks. ≥ 7.00

Also need Cc1cc(-c2cnn(C)c2C)cc2c1OCCN(c1nc(N)nc(C)c1C(C)C)C2 [Compound 110] , thanks. 6.30 to 7.00

Also need Cc1cc(-c2nnc(N)s2)cc2c1OCCN(c1nc(CNCC(F)F)nc(C)c1C(C)C)C2 [Compound 169] , thanks. ≥ 7.00

Also need Cc1cc(-c2cnc3sc(N)nc3c2)cc2c1OCCN(c1nc(C(F)F)nc(C)c1C(C)C)C2 [Compound 144] , thanks. ≥ 7.00

Also need CCNC(=O)c1sc(N2CCOc3c(C)cc(-c4cnc(Cl)c(NS(C)(=O)=O)c4)cc3C2)nc1C(C)C [Compound 33] , thanks. 6.30 to 7.00

Also need C=Cc1c(C)ncnc1N1CCOc2c(C)cc(-c3cnc4sc(N)nc4c3)cc2C1 [Compound 115] , thanks. ≥ 7.00
